Biological target: T1, 4H170-bH
T1 chain: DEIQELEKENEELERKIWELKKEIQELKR
Assay: two-hybrid library CCNG1;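 note: natural log of median RNA to DNA barcode read ratio; higher means stronger binding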
Readout Name: interaction score

Example entries begin here.
- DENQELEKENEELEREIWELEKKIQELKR [4H1158-bH]: 0.0131
- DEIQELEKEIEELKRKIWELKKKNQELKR [4H112-bH]: -0.736
- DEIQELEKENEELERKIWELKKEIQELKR [4H170-bH]: 0.761

(1) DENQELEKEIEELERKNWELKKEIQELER [4H1081-bH]
(2) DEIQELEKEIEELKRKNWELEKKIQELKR [4H118-bH]
Ask | Returns the identifier with the smallest measured interaction score among 1 and 2 . # answer = label of selected item
Reply | 1
